- test method notes: Cytotoxicity against human SH-SY5Y cells assessed as cell viability at 25 uM measured after 24 hrs by MTT assay relative to control
- Type: cell-based
- details: read-out: Activity
quantity: viability at 24 h, 25 µM (%)
Respond numerically; units are % and should not be typed.

Solved cases (3 shown):
compound | quantity | assay value
COc1cc2c(cc1O)CCC(C)(CC(N)=O)O2 (stereo not given) | viability at 24 h, 25 µM | 100
COc1cc2c(cc1O)CCC(C)(CCNC(=O)/C=C(C)/C=C/C=C(C)/C=C/C1=C(C)CCCC1(C)C)O2 (stereo not given) | viability at 24 h, 25 µM | 91.2
COc1cc2c(cc1O)CCC(C)(CC(=O)N[C@@H](C)C(=O)O)O2 (stereo not given in full) | viability at 24 h, 25 µM | 100

Note to self: viability at 24 h, 25 µM recorded for COc1cc2c(cc1O)CCC(C)(CC(=O)N[C@@H](Cc1c[nH]c3ccccc13)C(=O)O)O2 (stereo not given in full) was 90

* * *

- test method notes: Drug concentration in Sprague-Dawley rat brain at 0.2 mmol/Kg, ip measured after 1 hr by HPLC based fluorimetric analysis
- Type: ADME, organism-based
- details: in vivo
Entries and their measured Ct follow.
Respond numerically; units are nmol/g and should not be typed.

compound | quantity | unit tag | assay value
COc1cc2c(cc1O)CCC(C)(CCNC(=O)C[C@H]1OC(O)[C@H](O)[C@@H](O)[C@@H]1O)O2 (stereo not given in full) | Ct | nmol/g | 3.1
COc1cc2c(cc1O)CCC(C)(CC(=O)N[C@@H](Cc1ccccc1)C(=O)O)O2 (stereo not given in full) | Ct | nmol/g | 0
COc1cc2c(cc1O)CCC(C)(C)O2 | Ct | nmol/g | 4

Note to self: Ct recorded for COc1cc2c(cc1O)CCC(C)(CC(N)C(=O)O)O2 (stereo not given) was 15.8

Note to self: Ct recorded for COc1cc2c(cc1O)CCC(C)(CCNC(C)=O)O2 (stereo not given) was 2.3

* * *

- test method notes: Cytotoxicity against human SH-SY5Y cells assessed as cell viability at 100 uM measured after 2 hrs by MTT assay relative to control
- Format: cell-based
- details: read-out: Activity
Grouping by measured viability at 2 h, 100 µM is done with the following cut points: A = under 70%, B = from 70% up to 90%, C = 90% and over

compound | group
COc1cc2c(cc1O)CCC(C)(CC(=O)N[C@H](C(=O)O)C(C)C)O2 (stereo partly specified) | B
COc1cc2c(cc1O)CCC(C)(CC(=O)N[C@@H](Cc1ccc(O)cc1)C(=O)O)O2 (stereo partly specified) | B

[ask] Input "COc1cc2c(cc1O)CCC(C)(C)O2" ; output its category
[reply] A

[ask] Input COc1cc2c(cc1O)CCC(C)(CC(=O)N[C@@H](Cc1c[nH]c3ccccc13)C(=O)O)O2 (stereo partly specified) ; output its category
[reply] C

[ask] Input COc1cc2c(cc1O)CCC(C)(CC(=O)NCCc1ccc(O)c(O)c1)O2 (stereo unspecified) ; output its category
[reply] C

[ask] Input COc1cc2c(cc1O)CCC(C)(CC(=O)O)O2 (stereo unspecified) ; output its category
[reply] B

* * *

- test method notes: Drug concentration in Sprague-Dawley rat plasma at 0.2 mmol/Kg, ip measured after 1 hr by HPLC based fluorimetric analysis
- Assay type: ADME, organism-based
Lab note: anything with concentration at 1 h at or over 7 µM counts as 1; the rest go in 0.

Here's what some known entries look like.
molecule | group
COc1cc2c(cc1O)CCC(C)(C)O2 | 0
COc1cc2c(cc1O)CCC(C)(CCNC(=O)C[C@H]1OC(O)[C@H](O)[C@@H](O)[C@@H]1O)O2 (stereo partly specified) | 1
COc1cc2c(cc1O)CCC(C)(CC(N)C(=O)O)O2 (stereo unspecified) | 1
COc1cc2c(cc1O)CCC(C)(CC(=O)N[C@@H](Cc1ccccc1)C(=O)O)O2 (stereo partly specified) | 0

Consider now this further molecule.
[ask] For this molecule, is measured concentration at 1 h 7 µM or higher? COc1cc2c(cc1O)CCC(C)(CCNC(C)=O)O2 (stereo unspecified)
[reply] 0

* * *

- test method notes: Cytotoxicity against human SH-SY5Y cells assessed as cell viability at 50 uM measured after 24 hrs by MTT assay relative to control
- Format: cell-based
- details: read-out: Activity
So basically, if viability at 24 h, 50 µM comes in under 90% it's 1, and if it's 90% or more it's -1.

Here's what some known entries look like.
molecule | group
COc1cc2c(cc1O)CCC(C)(CC(=O)N[C@@H](C)C(=O)O)O2 (stereo partly specified) | -1
COc1cc2c(cc1O)CCC(C)(CC(=O)NCCc1ccc(O)c(O)c1)O2 (stereo unspecified) | 1

[ask] Decide: viability at 24 h, 50 µM of COc1cc2c(cc1O)CCC(C)(CC(=O)N1CCC[C@H]1C(=O)O)O2 (stereo partly specified) strictly below 90%?
[reply] -1

* * *

- test method notes: Cytotoxicity against human SH-SY5Y cells assessed as cell viability at 6.3 uM measured after 2 hrs by MTT assay relative to control
- Assay type: cell-based
- details: read-out: Activity
Entries and their measured viability at 2 h, 6.3 µM follow.
Your answer should be a number followed by the unit of measure.

Solved cases (5 shown):
molecule | viability at 2 h, 6.3 µM
COc1cc2c(cc1O)CCC(C)(C)O2 | 92.2%
COc1cc2c(cc1O)CCC(C)(CCNC(C)=O)O2 (stereo unspecified) | 79.4%
COc1cc2c(cc1O)CCC(C)(CC(=O)N[C@@H](Cc1ccccc1)C(=O)O)O2 (stereo partly specified) | 100%
COc1cc2c(cc1O)CCC(C)(CC(=O)N[C@@H](Cc1ccc(O)cc1)C(=O)O)O2 (stereo partly specified) | 99.7%
COc1cc2c(cc1O)CCC(C)(CC(=O)NCCc1ccc(O)c(O)c1)O2 (stereo unspecified) | 100%

Note to self: viability at 2 h, 6.3 µM recorded for COc1cc2c(cc1O)CCC(C)(CCNC(=O)/C=C(C)/C=C/C=C(C)/C=C/C1=C(C)CCCC1(C)C)O2 (stereo unspecified) was 90.5%

Note to self: viability at 2 h, 6.3 µM recorded for COc1cc2c(cc1O)CCC(C)(CC(=O)N[C@@H](C)C(=O)O)O2 (stereo partly specified) was 86.4%

Note to self: viability at 2 h, 6.3 µM recorded for COc1cc2c(cc1O)CCC(C)(CC(=O)N[C@@H](CCC(N)=O)C(=O)O)O2 (stereo partly specified) was 100%

Note to self: viability at 2 h, 6.3 µM recorded for COc1cc2c(cc1O)CCC(C)(CC(=O)O)O2 (stereo unspecified) was 100%

Note to self: viability at 2 h, 6.3 µM recorded for COc1cc2c(cc1O)CCC(C)(CCNC(=O)C[C@H]1OC(O)[C@H](O)[C@@H](O)[C@@H]1O)O2 (stereo partly specified) was 100%

Note to self: viability at 2 h, 6.3 µM recorded for Cc1c(C)c2c(c(C)c1O)CCC(C)(C(=O)O)O2 (stereo unspecified) was 97.4%

* * *

Entries and their measured viability at 24 h, 50 µM follow.
- test method notes: Cytotoxicity against human SH-SY5Y cells assessed as cell viability at 50 uM measured after 24 hrs by MTT assay relative to control
- Format: cell-based
- details: read-out: Activity
Respond numerically; units are % and should not be typed.

Solved cases (2 shown):
compound | viability at 24 h, 50 µM (%)
COc1cc2c(cc1O)CCC(C)(CC(=O)N[C@@H](Cc1ccc(O)cc1)C(=O)O)O2 (stereo not given in full) | 78.6
COc1cc2c(cc1O)CCC(C)(CC(N)C(=O)O)O2 (stereo not given) | 85.7

Note to self: viability at 24 h, 50 µM recorded for COc1cc2c(cc1O)CCC(C)(CC(=O)N[C@@H](CCC(N)=O)C(=O)O)O2 (stereo not given in full) was 83.2

Note to self: viability at 24 h, 50 µM recorded for COc1cc2c(cc1O)CCC(C)(CCNC(=O)C[C@H]1OC(O)[C@H](O)[C@@H](O)[C@@H]1O)O2 (stereo not given in full) was 86.6

Note to self: viability at 24 h, 50 µM recorded for Cc1c(C)c2c(c(C)c1O)CCC(C)(C(=O)O)O2 (stereo not given) was 81.9

* * *

- test method notes: Permeability of the compound at pH 7.4 by PAMPA-BBB assay
- Assay type: ADME
- details: read-out: permeability
So basically, if Papp comes in under 0.06 ×10⁻⁶ cm/s it's 1, and if it's 0.06 ×10⁻⁶ cm/s or more it's 0.

Here's what some known entries look like.
compound | group
COc1cc2c(cc1O)CCC(C)(CC(N)C(=O)O)O2 (stereo unspecified) | 1
COc1cc2c(cc1O)CCC(C)(CC(=O)N[C@H](C(=O)O)C(C)C)O2 (stereo partly specified) | 1
Cc1c(C)c2c(c(C)c1O)CCC(C)(C(=O)O)O2 (stereo unspecified) | 0
COc1cc2c(cc1O)CCC(C)(CC(N)=O)O2 (stereo unspecified) | 0
COc1cc2c(cc1O)CCC(C)(CC(=O)N1CCC[C@H]1C(=O)O)O2 (stereo partly specified) | 1

[ask] Decide: Papp of COc1cc2c(cc1O)CCC(C)(CC(=O)N[C@@H](Cc1ccccc1)C(=O)O)O2 (stereo partly specified) strictly below 0.06 ×10⁻⁶ cm/s?
[reply] 0

[ask] Decide: Papp of COc1cc2c(cc1O)CCC(C)(CC(=O)N[C@@H](Cc1c[nH]c3ccccc13)C(=O)O)O2 (stereo partly specified) strictly below 0.06 ×10⁻⁶ cm/s?
[reply] 0
